molecular target: P2X purinoceptor 7 (Homo sapiens); experiment: Antagonist activity at human P2X7 receptor
Entries and their IC50 values follow.
parameter: IC50 (nM)

{"columns": ["smiles text", "parameter", "comparative sign", "measured result"],
 "data": [
  ["O=C([C@@H]1Cc2ccc(OS(=O)(=O)c3cccc4cnccc34)cc2CN1S(=O)(=O)c1cccc2cnccc12)N1CCN(c2ccccc2)CC1", "IC50", "<", 1000],
  ["O=C(N[C@@H](Cc1ccc(OS(=O)(=O)c2ccc([N+](=O)[O-])cc2)cc1)C(=O)N1CCN(C(=O)c2ccccc2)CC1)OCc1ccccc1", "IC50", "=", 34],
  ["CC(C)(C)OC(=O)N1CCN(C(=O)[C@H](Cc2ccc(OS(=O)(=O)c3cccc4cnccc34)cc2)NS(=O)(=O)c2cccc3cnccc23)CC1", "IC50", "=", 41]
]}

----------
experiment: Terminal half life in rat at 20 mg/kg, iv; format: ADME, organism-based; set-up: dose 20 mg/kg, route intravenous; settings: in vivo, read-out: beta t1/2

{"columns": ["compound", "measurement units", "half-life"],
 "data": [
  ["O=C1NC(=O)N(C2CCN(C(=O)c3ccc(Cl)c(C(F)(F)F)c3)CC2)C1Cc1ccc(OS(=O)(=O)c2cccc3cnccc23)cc1 (racemic)", "h", 1.29]
]}

----------
Target: UniProt Q99572
Sequence (Q99572 whole entry): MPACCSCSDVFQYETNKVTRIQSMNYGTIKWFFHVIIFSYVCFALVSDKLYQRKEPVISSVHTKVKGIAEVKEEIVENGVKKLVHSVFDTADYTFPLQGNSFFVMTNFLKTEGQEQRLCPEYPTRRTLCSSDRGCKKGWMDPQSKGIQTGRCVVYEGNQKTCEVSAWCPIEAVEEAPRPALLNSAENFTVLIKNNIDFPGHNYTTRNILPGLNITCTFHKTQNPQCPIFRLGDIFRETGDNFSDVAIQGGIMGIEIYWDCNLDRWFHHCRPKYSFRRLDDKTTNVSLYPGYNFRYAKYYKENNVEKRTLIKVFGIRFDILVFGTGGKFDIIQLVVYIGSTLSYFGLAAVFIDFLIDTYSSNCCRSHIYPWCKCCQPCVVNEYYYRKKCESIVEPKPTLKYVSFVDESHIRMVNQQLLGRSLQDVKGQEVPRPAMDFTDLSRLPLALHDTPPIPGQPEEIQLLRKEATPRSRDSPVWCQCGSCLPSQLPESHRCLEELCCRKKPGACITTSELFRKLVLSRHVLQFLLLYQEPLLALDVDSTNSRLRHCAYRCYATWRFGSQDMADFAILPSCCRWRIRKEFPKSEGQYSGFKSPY
Assay: Antagonist activity at recombinant human P2X7 receptor expressed in HEK293 cells assessed as inhibition of BzATP-induced intracellular ethidium bromide uptake after 2 hrs by fluorescence assay
Type: cell-based
pIC50: −log10 of the molar value.
parameter: pIC50

{"columns": ["molecule", "measured result"],
 "data": [
  ["O=C1NC(=O)N(C2CCN(C(=O)c3ccc(F)cc3)CC2)C1Cc1ccc(OS(=O)(=O)c2cccc3cnccc23)cc1 (racemic)", 6.04],
  ["O=C1NC(=O)N(CC2CCN(C(=O)c3ccccc3)CC2)C1Cc1ccc(OS(=O)(=O)c2cccc3cnccc23)cc1 (racemic)", 6.10],
  ["CC(C)(C)OC(=O)N1CCC(CN2C(=O)NC(=O)C2Cc2ccc(OS(=O)(=O)c3cccc4cnccc34)cc2)CC1 (racemic)", 6.05]
]}

----------
biological target: P2X purinoceptor 7 (Homo sapiens); assay: Antagonist activity at P2X7 receptor in LPS/IFN-gamma-differentiated human THP1 cells assessed as inhibition of BzATP-induced IL-1beta release at 1 uM preincubated for 30 mins followed by BzATP induction measured after 30 mins by ELISA relative to control; assay type: cell-based; conditions: THP-1

{"columns": ["molecule", "measurement units", "comparative sign", "inhibition"],
 "data": [
  ["CC(C)(C)OC(=O)N1CCC(CN2C(=O)NC(=O)C2Cc2ccc(OS(=O)(=O)c3cccc4cnccc34)cc2)CC1 (racemic)", "%", "=", 60],
  ["CC(C)(C)OC(=O)N1CCC(CN2C(=O)N[C@@H](Cc3ccc(OS(=O)(=O)c4cccc5cnccc45)cc3)C2=O)CC1", "%", "=", 45],
  ["O=C1NC(=O)N(CC2CCN(Cc3ccccc3)CC2)C1Cc1ccc(OS(=O)(=O)c2cccc3cnccc23)cc1 (racemic)", "%", "=", 52],
  ["O=C1NC(=O)N(Cc2cccc3cnccc23)C1Cc1ccc(OS(=O)(=O)c2cccc3cnccc23)cc1 (racemic)", "%", "=", 38],
  ["O=C1NC(=O)N(C2CCN(C(=O)C34CC5CC(CC(Br)(C5)C3)C4)CC2)C1Cc1ccc(OS(=O)(=O)c2cccc3cnccc23)cc1 (racemic)", "%", ">", 95],
  ["O=C1NC(=O)N(C2CCN(C(=O)C34CC5CC(CC3C5)C4)CC2)C1Cc1ccc(OS(=O)(=O)c2cccc3cnccc23)cc1 (racemic)", "%", ">", 95],
  ["O=C1NC(=O)N(C2CCN(CC34CC5CC(CC(C5)C3)C4)CC2)C1Cc1ccc(OS(=O)(=O)c2cccc3cnccc23)cc1 (racemic)", "%", "=", 49]
]}

----------
target: P2X purinoceptor 7 (Mus musculus); assay: Antagonist activity at P2X7 receptor in LPS-primed mouse J774.A1 cells assessed as inhibition of ATP-induced IL-1beta release after 30 mins by ELISA
Sequence (Q9Z1M0 whole entry): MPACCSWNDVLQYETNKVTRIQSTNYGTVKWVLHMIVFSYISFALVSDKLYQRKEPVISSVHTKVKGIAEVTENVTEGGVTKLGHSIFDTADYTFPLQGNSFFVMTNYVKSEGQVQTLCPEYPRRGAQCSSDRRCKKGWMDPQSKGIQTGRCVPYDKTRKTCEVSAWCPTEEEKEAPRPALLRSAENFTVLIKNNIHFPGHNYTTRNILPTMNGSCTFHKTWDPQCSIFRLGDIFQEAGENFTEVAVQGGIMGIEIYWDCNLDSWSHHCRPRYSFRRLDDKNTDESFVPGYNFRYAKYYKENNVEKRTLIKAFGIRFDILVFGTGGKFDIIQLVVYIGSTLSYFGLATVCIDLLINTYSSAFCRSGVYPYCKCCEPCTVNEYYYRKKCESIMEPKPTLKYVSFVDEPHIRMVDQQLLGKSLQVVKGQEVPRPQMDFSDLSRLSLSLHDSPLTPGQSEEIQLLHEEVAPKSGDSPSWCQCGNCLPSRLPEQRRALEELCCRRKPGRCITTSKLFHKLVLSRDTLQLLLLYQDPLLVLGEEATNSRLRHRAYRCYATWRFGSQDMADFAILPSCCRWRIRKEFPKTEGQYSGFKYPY
pIC50: −log10 of the molar value.
Catalogue of pIC50 values
parameter: pIC50

{"columns": ["molecule", "comparative sign", "measured result"],
 "data": [
  ["O=C(NCC12CC3CC(CC(C3)C1)C2)c1cc(CCCNCCCO)ccc1Cl", "<", 4.22],
  ["O=C1NC(=O)N(C2CCN(C(=O)c3ccc(Cl)c(C(F)(F)F)c3)CC2)C1Cc1ccc(OS(=O)(=O)c2cccc3cnccc23)cc1 (racemic)", "=", 4.93]
]}

----------
test: Bioavailability in rat at 10 mg/kg, ip; format: ADME, organism-based; conditions: in vivo
parameter: bioavailability (%)

{"columns": ["molecule", "measured result"],
 "data": [
  ["O=C1NC(=O)N(C2CCN(C(=O)c3ccc(Cl)c(C(F)(F)F)c3)CC2)C1Cc1ccc(OS(=O)(=O)c2cccc3cnccc23)cc1 (racemic)", 86]
]}

----------
Molecular target: P2X purinoceptor 7 (Homo sapiens) (UniProt Q99572)
Sequence (whole entry): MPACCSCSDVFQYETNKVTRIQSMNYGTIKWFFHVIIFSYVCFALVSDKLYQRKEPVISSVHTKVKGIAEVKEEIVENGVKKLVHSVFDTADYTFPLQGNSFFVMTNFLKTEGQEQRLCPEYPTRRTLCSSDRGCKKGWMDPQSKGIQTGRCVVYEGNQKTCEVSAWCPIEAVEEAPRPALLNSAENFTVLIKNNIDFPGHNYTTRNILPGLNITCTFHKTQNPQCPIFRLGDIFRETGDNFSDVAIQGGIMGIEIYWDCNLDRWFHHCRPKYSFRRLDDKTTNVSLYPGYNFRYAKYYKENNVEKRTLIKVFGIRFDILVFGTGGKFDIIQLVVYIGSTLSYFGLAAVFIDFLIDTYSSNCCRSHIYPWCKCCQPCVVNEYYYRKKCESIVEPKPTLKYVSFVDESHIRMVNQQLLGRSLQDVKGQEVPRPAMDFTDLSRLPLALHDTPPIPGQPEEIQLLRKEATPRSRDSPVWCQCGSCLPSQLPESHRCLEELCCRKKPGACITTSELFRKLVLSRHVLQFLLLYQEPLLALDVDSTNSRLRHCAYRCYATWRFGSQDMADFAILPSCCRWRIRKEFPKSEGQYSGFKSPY
Test: Antagonist activity at P2X7 receptor in LPS/IFN-gamma-differentiated human THP1 cells assessed as inhibition of BzATP-induced IL-1beta release at 1 uM preincubated for 30 mins followed by BzATP induction measured after 30 mins by ELISA relative to control
Type: cell-based
Settings: THP-1
Attribute: inhibition
parameter: inhibition

{"columns": ["compound", "parameter", "measured result"],
 "data": [
  ["O=C1NC(=O)N(C2CCN(C(=O)c3ccc(Cl)c(C(F)(F)F)c3)CC2)C1Cc1ccc(OS(=O)(=O)c2cccc3cnccc23)cc1 (racemic)", "inhibition", "> 95%"],
  ["O=C1NC(=O)N(C2CCN(C(=O)CC34CC5CC(CC(C5)C3)C4)CC2)C1Cc1ccc(OS(=O)(=O)c2cccc3cnccc23)cc1 (racemic)", "inhibition", "> 95%"],
  ["O=C1NC(=O)N(C2CCN(C(=O)CC3CC4CCC3C4)CC2)C1Cc1ccc(OS(=O)(=O)c2cccc3cnccc23)cc1 (racemic)", "inhibition", "> 95%"]
]}

----------
Reported pIC50 values for a set of molecules
Target: P2X purinoceptor 7 (Homo sapiens)
Sequence (Q99572 whole entry): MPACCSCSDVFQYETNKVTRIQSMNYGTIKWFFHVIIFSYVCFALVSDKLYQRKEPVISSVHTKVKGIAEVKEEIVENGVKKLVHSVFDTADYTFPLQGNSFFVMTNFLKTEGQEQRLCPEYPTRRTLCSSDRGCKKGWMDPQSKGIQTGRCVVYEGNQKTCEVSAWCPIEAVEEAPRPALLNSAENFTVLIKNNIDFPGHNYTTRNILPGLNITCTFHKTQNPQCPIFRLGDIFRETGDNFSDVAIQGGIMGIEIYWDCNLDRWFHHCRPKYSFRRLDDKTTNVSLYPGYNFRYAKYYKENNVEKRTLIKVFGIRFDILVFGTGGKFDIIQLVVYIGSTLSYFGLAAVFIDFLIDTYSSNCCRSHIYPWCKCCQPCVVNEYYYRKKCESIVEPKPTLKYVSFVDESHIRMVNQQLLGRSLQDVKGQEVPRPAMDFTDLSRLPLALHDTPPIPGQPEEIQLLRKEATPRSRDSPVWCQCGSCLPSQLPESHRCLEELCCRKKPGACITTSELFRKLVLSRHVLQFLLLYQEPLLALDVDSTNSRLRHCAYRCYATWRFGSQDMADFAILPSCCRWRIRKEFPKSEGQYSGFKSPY
Experiment: Antagonist activity at recombinant human P2X7 receptor expressed in HEK293 cells assessed as inhibition of BzATP-induced intracellular ethidium bromide uptake after 2 hrs by fluorescence assay
Format: cell-based
pIC50: −log10 of the molar value.
parameter: pIC50

{"columns": ["molecule", "measured result"],
 "data": [
  ["O=C1NC(=O)N(C2CCN(C(=O)C3CCCCC3)CC2)C1Cc1ccc(OS(=O)(=O)c2cccc3cnccc23)cc1 (racemic)", 6.88],
  ["O=C1NC(=O)N(C2CCN(C(=O)c3ccc(Cl)c(C(F)(F)F)c3)CC2)C1Cc1ccc(OS(=O)(=O)c2cccc3cnccc23)cc1 (stereo in doubt; (+)-21w)", 6.77],
  ["CCCC(=O)N1CCC(N2C(=O)NC(=O)C2Cc2ccc(OS(=O)(=O)c3cccc4cnccc34)cc2)CC1 (racemic)", 5.06],
  ["O=C1NC(=O)N(C2CCN(Cc3ccccc3)CC2)C1Cc1ccc(OS(=O)(=O)c2cccc3cnccc23)cc1 (racemic)", 5.79],
  ["CC(C)CC(=O)N1CCC(N2C(=O)NC(=O)C2Cc2ccc(OS(=O)(=O)c3cccc4cnccc34)cc2)CC1 (racemic)", 5.31],
  ["O=C1NC(=O)N(C2CCN(C(=O)c3ccccc3Cl)CC2)C1Cc1ccc(OS(=O)(=O)c2cccc3cnccc23)cc1 (racemic)", 6.18]
]}

Where do these numbers come from? They come from ChEMBL document CHEMBL3414458.
